# measured-target: UniProtKB G1SX67
# protocol-text: Measurement of Inhibition of PDE V (cyclic nucleotide phosphodiesterase assay)
# Format: biochemical, rabbit
# study-conditions: at 20 μM; read-out: Activity Inhibition % at (conc. μM)
Listed below: inhibition at 20 µM values for each entry.
property-label: inhibition at 20 µM (%)

sample-smiles	property-label	reported-result
CCCc1nn(C)c2c(=O)[nH]c(-c3sc(S(=O)(=O)N4CCN(c5ncccn5)CC4)cc3O)nc12	inhibition at 20 µM	13
CCCc1nn(C)c2c(=O)[nH]c(-c3cc4c(S(=O)(=O)N5CCN(C)CC5)cc(S(=O)(=O)N5CCN(C)CC5)c(OCC)c4o3)nc12	inhibition at 20 µM	6
CCCc1nn(C)c2c(=O)[nH]c(-c3sc(S(=O)(=O)N4CCN(Cc5ccccc5)CC4)cc3O)nc12	inhibition at 20 µM	18
CCCc1nn(C)c2c(=O)[nH]c(-c3sc(S(=O)(=O)N4CCN(Cc5ccccc5)CC4)cc3OCC)nc12	inhibition at 20 µM	46
